- tested.system: T1, Rad51, fluorescently labelled (microscale thermophoresis) (UniProt Q06609 1-339, limits assumed, fluorescently labelled according to the manufacturer's protocol (site not stated))
- T1 construct: Purified labelled protein at about 500 nM; The buffer contained 0.5 mM ATP and 2.5 uM ssDNA
- T1 sequence (looked up): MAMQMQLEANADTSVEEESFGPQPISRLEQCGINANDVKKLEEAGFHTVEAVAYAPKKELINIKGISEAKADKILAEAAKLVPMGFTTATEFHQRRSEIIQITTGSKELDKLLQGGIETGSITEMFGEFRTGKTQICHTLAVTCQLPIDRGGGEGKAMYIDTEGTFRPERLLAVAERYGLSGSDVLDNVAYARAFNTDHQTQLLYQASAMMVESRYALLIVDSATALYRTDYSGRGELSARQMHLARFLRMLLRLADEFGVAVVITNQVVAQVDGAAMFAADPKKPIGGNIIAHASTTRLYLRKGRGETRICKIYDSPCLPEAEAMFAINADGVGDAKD
- test: microscale thermophoresis, labelled Rad51 about 500 nM, PBS
Non-standard residues stand in square brackets, D forms with d. Groups on a side chain read outwards from the residue. *: point of attachment. 5FAM = O=C1OC2(c3ccc(O)cc3Oc3cc(O)ccc32)c2ccc(C(=O)*)cc21
Overview of reported Kd across a group of binders:
Record the value in nM, omitting the unit from your answer.

Ac-[dL][dM][dR][dS][dV][dR][dL][dR][dV]G[dL][dR][dK][dR][dR][dR][dR][dR][dR][dR]-NH2 [Compound 10, Ac-lmrsvrlrvGlrkrrrrrrr-NH2]; 8.55

Pending binder:
The value of Kd measured for the binder Ac-K([C6-5FAM])RRRRRRRKRLGVRLRVSRML-NH2 (also called active peptide 5) [Compound 5, Ac-K(C6_5FAM)-RRRRRRRKRLGVRLRVSRML-NH2] turned out to be 8.37

Ref: patent US20170368132A1
